Test: chemical genetic growth profiling, strain panel (AID 1159580);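 note: tested at 20 µM; growth read once vehicle control cultures reached saturation at 30 °C; lower values mean less growth of the strain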
Settings: S. cerevisiae deletion strains, growth OD, locus YLR330W, strain CHS5
Among all 5,500 compounds or so, about 2,000 (36%) were called active. Not shown: some 18% with an inconclusive outcome. Cut-off read from the data, not from the text of the source: active = normalized growth mostly below about 0.91 (no sharp cut-off); inconclusive = no clear call, values can overlap the other calls; inactive = mostly above about 0.92. The list shows a part of the results.
Use one of these outcomes when replying: active, inactive

Use these answered entries as a reference point.
COc1cc(OC)c(OC)cc1C=O | inactive
CCN(CC)CCOC(=O)C(c1ccccc1)c1ccccc1 | inactive
N#C/C(=C\c1cccc(O)c1)C(=O)O | inactive
CNC(=O)Oc1ccc2c(c1)[C@]1(C)CCN(C)[C@@H]1N2C | inactive
CC(CN1c2ccccc2Sc2ccccc21)N(C)C (stereo not given) | inactive
CC(=O)Nc1ccccc1 | inactive

Outcome? NS(=O)(=O)c1cc2c(cc1Cl)NC(C1CC3C=CC1C3)NS2(=O)=O (stereo not given)
inactive

How was CCC(=O)c1ccc2c(c1)N(CC(C)N(C)C)c1ccccc1S2 (stereo not given) classified in this test?
inactive

Recorded test call requested for CC(CCC(=O)O)[C@H]1CCC2C3CC[C@@H]4C[C@H](O)CC[C@]4(C)C3CC[C@@]21C (stereo not given in full)
active

What is the recorded call for this molecule in the test? Cc1cc(O)c(C=O)c2c1C(=O)Oc1c(C)c(O)c3c(c1O2)C(O)OC3=O (stereo not given)
inactive

Identify the outcome logged in this assay for the molecule shown: CC1(C)C(=O)C=C[C@@]2(C)C1CC(=O)[C@@]1(C)C3=CC(=O)O[C@@H](c4ccoc4)[C@]3(C)CCC12 (stereo not given in full)
inactive

Recorded test call requested for COC(=O)CCC(=O)O[C@H]1CCC2(C)C(CCC3C2C(=O)[C@@H](O)C2(C)C3CC3OC4(CCC(C)CO4)[C@@H](C)C32)C1 (stereo not given in full)
inactive

Hey, what did the test say about C=C[C@H]1CN2CC[C@H]1C[C@@H]2[C@H](O)c1ccnc2ccccc12 ?
inactive

Which outcome did this test record for the molecule CSc1ccc2c(c1)N(CCC1CCCCN1C)c1ccccc1S2 (stereo not given) ?
active
